B1: library; numbered along this chain (parent)
chain: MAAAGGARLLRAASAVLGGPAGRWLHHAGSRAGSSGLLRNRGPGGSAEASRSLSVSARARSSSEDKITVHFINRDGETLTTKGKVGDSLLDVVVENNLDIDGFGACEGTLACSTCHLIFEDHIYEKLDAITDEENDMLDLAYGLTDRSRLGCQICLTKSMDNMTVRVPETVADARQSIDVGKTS

- Variants of: B1
- assayProtocol: scaled log2 fold change in cell abundance, elesclomol vs control (0 = silent mean, 1 = nonsense mean) (scaled log2 ratio); higher = higher viability under elesclomol (loss of FDX1 cuproptosis function);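 also: variant abundance is its share of total variant reads in each endpoint sample, from next-generation sequencing of the integrated ORF PCR-amplified out of genomic DNA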
- testContext: with ABC1 FDX1 KO; elesclomol 5 nM; glucose 10 mM; 14 days
Give measured scaled log2 fold change for each item. Keep answers brief.
One number for each entry.

Below, each entry is followed by its recorded scaled log2 fold change result.
[
  {
    "mutationString": "E125F",
    "scaled log2 fold change": -0.241
  },
  {
    "mutationString": "T131S",
    "scaled log2 fold change": 0.0867
  },
  {
    "mutationString": "E133C",
    "scaled log2 fold change": 0.215
  },
  {
    "mutationString": "T78D",
    "scaled log2 fold change": 0.00307
  },
  {
    "mutationString": "G108C",
    "scaled log2 fold change": 1.05
  },
  {
    "mutationString": "V92S",
    "scaled log2 fold change": 0.501
  }
]

Please look at the items below and tell me scaled log2 fold change for each one, in order.
1. I130F
2. T68A
3. G22K
4. A172N
5. L117W
6. L117N
7. Y142T
8. N96H

1. 0.211
2. -0.0418
3. 0.385
4. -0.267
5. 1.03
6. 1.04
7. -0.197
8. 0.245

Please look at the items below and tell me scaled log2 fold change for each one, in order.
1. L140P
2. S34D
3. A32D
4. S52C
5. L53C
6. G6V
7. T68P

[0.264, 0.0928, 0.119, 0.431, 0.0732, -0.0163, 0.317]

Tell us which scaled log2 fold change value is on record for R11Y 0.189
